target_system: human orexin-2 receptor (Homo sapiens (Human))
method_summary: radioligand binding assay, orexin-2 receptor
measurement_setup: membranes prepared from CHO cells expressing the OX2 receptor; read-out: hOX2R BIND hKi
Consider the reported Ki of an entry and match it to a band in low end: < 0.8 nM; middle: ≥ 0.8 nM and < 5 nM; high end: ≥ 5 nM

Please review the following examples before continuing.
{"columns": ["molecule", "target_system", "label"],
 "data": [
  ["Cc1c(C#N)ccnc1O[C@@H]1CC[C@@H](C)N(C(=O)c2sccc2-c2cscn2)C1 [Example 38]", "human orexin-2 receptor (Homo sapiens (Human))", "middle"],
  ["Cc1c(C#N)ccnc1O[C@@H]1CC[C@@H](C)N(C(=O)c2c(F)cccc2-c2cscn2)C1 [Example 22]", "human orexin-2 receptor (Homo sapiens (Human))", "low end"],
  ["COc1ccc(C(=O)N2C[C@H](Oc3nccc(C#N)c3C)CC[C@H]2C)c(-c2ccnn2C)n1 [Example 79]", "human orexin-2 receptor (Homo sapiens (Human))", "high end"],
  ["Cc1nc(C(=O)N2C[C@H](Oc3nccc(C#N)c3C)CC[C@H]2C)c(-c2ccccc2)s1 [Example 57]", "human orexin-2 receptor (Homo sapiens (Human))", "middle"],
  ["Cc1ccc(-n2nccn2)c(C(=O)N2C[C@H](Oc3nccc(C#N)c3C)CC[C@H]2C)c1 [Example 6]", "human orexin-2 receptor (Homo sapiens (Human))", "low end"]
]}

Qu. Please let me know in which category the item Cc1c(C#N)ccnc1O[C@@H]1CC[C@@H](C)N(C(=O)c2cc(Cl)ccc2-n2nccn2)C1 [Example 3] belongs.
Ans. high end

Qu. Please let me know in which category the item Cc1c(C#N)ccnc1O[C@@H]1CC[C@@H](C)N(C(=O)c2ccc(CO)cc2-c2ccccc2)C1 [Example 54] belongs.
Ans. middle

Qu. Please let me know in which category the item Cc1c(C#N)ccnc1O[C@@H]1CC[C@@H](C)N(C(=O)c2ccccc2-n2nccn2)C1 [Example 1] belongs.
Ans. low end

Qu. Please let me know in which category the item Cc1c(C#N)ccnc1O[C@@H]1CC[C@@H](C)N(C(=O)c2cn(C)nc2-c2nccs2)C1 [Example 46] belongs.
Ans. high end

Qu. Please let me know in which category the item Cc1c(C#N)ccnc1O[C@@H]1CC[C@@H](C)N(C(=O)c2ccc(Cl)cc2-n2nccn2)C1 [Example 4] belongs.
Ans. low end

Qu. Please let me know in which category the item COc1ccc(C(=O)N2C[C@H](Oc3nccc(C#N)c3C)CC[C@H]2C)c(-n2nccn2)n1 [Example 2] belongs.
Ans. middle

Qu. Please let me know in which category the item Cc1nnn(-c2ccccc2C(=O)N2C[C@H](Oc3nccc(C#N)c3C)CC[C@H]2C)n1 [Example 40] belongs.
Ans. low end

Qu. Please let me know in which category the item Cc1c(C#N)ccnc1O[C@@H]1CC[C@@H](C)N(C(=O)c2cnc(Cl)cc2-n2nccn2)C1 [Example 67] belongs.
Ans. middle

* * *

target_system: human orexin-2 receptor (Homo sapiens (Human), UniProt O43614)
Sequence (O43614 whole entry): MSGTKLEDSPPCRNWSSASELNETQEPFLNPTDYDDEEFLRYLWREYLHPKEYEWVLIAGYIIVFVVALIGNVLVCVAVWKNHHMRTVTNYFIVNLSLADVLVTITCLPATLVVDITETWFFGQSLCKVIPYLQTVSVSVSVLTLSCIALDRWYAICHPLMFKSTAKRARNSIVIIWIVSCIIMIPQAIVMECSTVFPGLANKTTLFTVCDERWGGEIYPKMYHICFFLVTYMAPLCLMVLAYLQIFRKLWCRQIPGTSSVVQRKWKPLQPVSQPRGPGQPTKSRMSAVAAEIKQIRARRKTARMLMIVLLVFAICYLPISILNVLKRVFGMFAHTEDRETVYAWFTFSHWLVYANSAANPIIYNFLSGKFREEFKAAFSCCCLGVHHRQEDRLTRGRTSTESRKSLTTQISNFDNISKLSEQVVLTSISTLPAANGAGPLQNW
method_summary: radioligand binding assay, orexin-2 receptor
measurement_setup: membranes prepared from CHO cells expressing the OX2 receptor; read-out: hOX2R BIND hKi
Each record here notes measured pKi.
To interpret pKi, take it as minus log10 of a concentration measured in moles per litre.

These recorded examples may help you get a feel for the data.
{"columns": ["molecule", "target_system", "pKi"],
 "data": [
  ["Cc1c(C#N)ccnc1O[C@@H]1CC[C@@H](C)N(C(=O)c2cc(C#N)ccc2-n2nccn2)C1 [Example 71]", "human orexin-2 receptor (Homo sapiens (Human), UniProt O43614)", 8.26],
  ["Cc1c(C#N)ccnc1O[C@@H]1CC[C@@H](C)N(C(=O)c2sccc2-c2ncccn2)C1 [Example 75]", "human orexin-2 receptor (Homo sapiens (Human), UniProt O43614)", 9.10],
  ["COc1ccc(-c2ccccc2C(=O)N2C[C@H](Oc3nccc(C#N)c3C)CC[C@H]2C)cn1 [Example 49]", "human orexin-2 receptor (Homo sapiens (Human), UniProt O43614)", 9.30],
  ["Cc1c(C#N)ccnc1O[C@@H]1CC[C@@H](C)N(C(=O)c2c(F)cccc2-n2nccn2)C1 [Example 11]", "human orexin-2 receptor (Homo sapiens (Human), UniProt O43614)", 9.52],
  ["Cc1c(C#N)ccnc1O[C@@H]1CC[C@@H](C)N(C(=O)c2cc(F)ccc2-c2ccccn2)C1 [Example 56]", "human orexin-2 receptor (Homo sapiens (Human), UniProt O43614)", 8.85],
  ["Cc1c(C#N)ccnc1O[C@@H]1CC[C@@H](C)N(C(=O)c2ccc(Br)nc2-n2nccn2)C1 [Example 89]", "human orexin-2 receptor (Homo sapiens (Human), UniProt O43614)", 8.29],
  ["COc1c(C#N)ccnc1O[C@@H]1CC[C@@H](C)N(C(=O)c2cc(C)ccc2-n2nccn2)C1 [Example 103]", "human orexin-2 receptor (Homo sapiens (Human), UniProt O43614)", 9.40],
  ["Cc1c(C#N)ccnc1O[C@@H]1CC[C@@H](C)N(C(=O)c2ccsc2-c2nccs2)C1 [Example 32]", "human orexin-2 receptor (Homo sapiens (Human), UniProt O43614)", 9.15],
  ["Cc1c(C#N)ccnc1O[C@@H]1CC[C@@H](C)N(C(=O)c2ccccc2C(F)(F)F)C1 [Example 17]", "human orexin-2 receptor (Homo sapiens (Human), UniProt O43614)", 8.51],
  ["Cc1c(C#N)ccnc1O[C@@H]1CC[C@@H](C)N(C(=O)c2cccc(F)c2-n2nccn2)C1 [Example 12]", "human orexin-2 receptor (Homo sapiens (Human), UniProt O43614)", 9.00]
]}

Qu. Please look up its pKi: COc1c(C#N)ccnc1O[C@@H]1CC[C@@H](C)N(C(=O)c2c(F)cccc2-n2nccn2)C1 [Example 100]
Ans. 9.52

Qu. Please look up its pKi: Cc1ccc(C(=O)N2C[C@H](Oc3nccc(C#N)c3C)CC[C@H]2C)c(-n2nccn2)c1 [Example 8]
Ans. 9.22

Qu. Please look up its pKi: C=Cc1ccc(C(=O)N2C[C@H](Oc3nccc(C#N)c3C)CC[C@H]2C)c(-n2nccn2)n1 [Example 90]
Ans. 7.89

Qu. Please look up its pKi: Cc1c(C#N)ccnc1O[C@@H]1CC[C@@H](C)N(C(=O)c2ccc(Cl)nc2-n2nccn2)C1 [Example 72]
Ans. 8.46

Qu. Please look up its pKi: COc1ccc(C(=O)N2C[C@H](Oc3nccc(C#N)c3C)CC[C@H]2C)c(-c2ccncc2)n1 [Example 48]
Ans. 8.05

Qu. Please look up its pKi: Cc1c(C#N)ccnc1O[C@@H]1CC[C@@H](C)N(C(=O)c2ccccc2-c2cnn(C)c2)C1 [Example 36]
Ans. 8.82
